Test: Cytotoxicity test (MTT assay)
Type: cell-based, human
Conditions: human, A549 cells; A549 cell line, 48 hours, MTT, OD540; read-out: IC20 (the concentration showing 20% survival rate)
QUANTITY: IC20 at 48 h (µM)

INSERT INTO results (molecule, units_label, measured) VALUES
  ('CCC=O [propionaldehyde]', 'µM', 2500);

Hey, just so you know, these numbers are from patent US20130281311A1.
